Target: TGR5 (NCI-H716 cell line) (Homo sapiens, UniProt Q8TDU6)
Sequence (Q8TDU6 1-330): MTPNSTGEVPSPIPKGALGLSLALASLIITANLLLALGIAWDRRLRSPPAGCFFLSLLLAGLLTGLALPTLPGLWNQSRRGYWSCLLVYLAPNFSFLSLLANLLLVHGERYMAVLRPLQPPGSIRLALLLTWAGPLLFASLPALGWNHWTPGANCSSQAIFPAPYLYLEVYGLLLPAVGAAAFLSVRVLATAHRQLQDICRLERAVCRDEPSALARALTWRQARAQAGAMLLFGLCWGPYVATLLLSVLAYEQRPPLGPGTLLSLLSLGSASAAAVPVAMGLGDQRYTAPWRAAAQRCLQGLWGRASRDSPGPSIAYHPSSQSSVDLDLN
Experiment: NCI-H716 cAMP Agonist EC50 Determination
Where a name gives a salt, the structure may show the parent alone.
property.label: EC50

Test item COc1cc(C2CCCc3nc(SCc4sccc4Cl)n(-c4ccc(F)cc4)c32)ccc1Cl (centres unmarked) [Example 58, trifluoroacetic acid] ; TGR5 (NCI-H716 cell line) (Homo sapiens, UniProt Q8TDU6); reported EC50 was > 50 µM

Test item COc1ccc(C2(C)CCCc3nc(SCc4c(F)cc(OCCN(C)C)cc4F)n(-c4ccc(F)cc4)c32)cc1OC (centres unmarked) [Example 108] ; TGR5 (NCI-H716 cell line) (Homo sapiens, UniProt Q8TDU6); reported EC50 was 0.68 µM

Test item COc1cc(C2CCCc3nc(SCc4c(F)cccc4Cl)n(-c4cc(F)c(F)c(F)c4)c32)ccc1Cl (centres unmarked) [Example 10] ; TGR5 (NCI-H716 cell line) (Homo sapiens, UniProt Q8TDU6); reported EC50 was > 50 µM

Test item COc1cc(C2(C)CCCc3nc(SCc4ncncc4Cl)n(-c4ccc(F)cc4)c32)ccc1Cl (centres unmarked) [Example 86, trifluoroacetic acid] ; TGR5 (NCI-H716 cell line) (Homo sapiens, UniProt Q8TDU6); reported EC50 was 27.1 µM

Test item COc1cc(C2CCCc3nc(SCc4c(F)cc(OCCN(C)C)cc4F)n(-c4ccc(F)cc4)c32)ccc1Cl (centres unmarked) [Example 24] ; TGR5 (NCI-H716 cell line) (Homo sapiens, UniProt Q8TDU6); reported EC50 was > 50 µM

Test item COc1cc(C2CCCc3nc(SCc4c(F)cc(C(=O)NCC[N+](C)(C)C)cc4F)n(-c4ccc(F)cc4)c32)ccc1Cl (centres unmarked) [Example 13, 2,2,2-trifluoroacetate] ; TGR5 (NCI-H716 cell line) (Homo sapiens, UniProt Q8TDU6); reported EC50 was > 50 µM

Test item COc1cc(C2CCCc3nc(SCc4c(F)cc(CCCN/C(N)=N/C#N)cc4F)n(-c4ccc(F)cc4)c32)ccc1Cl (centres unmarked) [Example 43, hydrochloride] ; TGR5 (NCI-H716 cell line) (Homo sapiens, UniProt Q8TDU6); reported EC50 was > 50 µM

Test item COc1cc(C2CCCc3nc(SCc4c(F)ccc(OCCN(C)C)c4F)n(-c4ccc(F)cc4)c32)ccc1Cl (centres unmarked) [Example 31] ; TGR5 (NCI-H716 cell line) (Homo sapiens, UniProt Q8TDU6); reported EC50 was 4.44 µM

Test item COc1cc(C2CCCc3nc(SCc4ncccn4)n(-c4ccc(F)cc4)c32)ccc1Cl (centres unmarked) [Example 57, trifluoroacetic acid] ; TGR5 (NCI-H716 cell line) (Homo sapiens, UniProt Q8TDU6); reported EC50 was > 50 µM

Test item CCO/C=C/c1cc(F)c(CSc2nc3c(n2-c2ccc(F)cc2)C(C)(c2ccc(OC)c(OC)c2)CCC3)c(F)c1 (centres unmarked) [Example 110] ; TGR5 (NCI-H716 cell line) (Homo sapiens, UniProt Q8TDU6); reported EC50 was 1.18 µM

Test item COc1cc(C2CCCc3nc(SCc4c(F)cc(S(N)(=O)=O)cc4F)n(-c4ccc(F)cc4)c32)ccc1Cl (centres unmarked) [Example 21a] ; TGR5 (NCI-H716 cell line) (Homo sapiens, UniProt Q8TDU6); reported EC50 was 48.4 µM

Test item COc1cc(C2OCCc3nc(SCc4c(F)cc(OCCOCCOCCCl)cc4F)n(-c4ccc(F)cc4)c32)ccc1Cl (centres unmarked) [Example 133] ; TGR5 (NCI-H716 cell line) (Homo sapiens, UniProt Q8TDU6); reported EC50 was > 50 µM

Test item COc1cc(C2CCCc3nc(SCc4c(F)cc(CCCNC(=N)N)cc4F)n(-c4ccc(F)cc4)c32)ccc1Cl (centres unmarked) [Example 42, trifluoroacetic acid] ; TGR5 (NCI-H716 cell line) (Homo sapiens, UniProt Q8TDU6); reported EC50 was > 50 µM

Test item COc1cc(C2CCCc3nc(SCc4c(F)cncc4Br)n(-c4ccc(F)cc4)c32)ccc1Cl (centres unmarked) [Example 56, trifluoroacetic acid] ; TGR5 (NCI-H716 cell line) (Homo sapiens, UniProt Q8TDU6); reported EC50 was > 50 µM

###

Kindly state pEC50 for each of the entries shown.
molecular target: TGR5 (NCI-H716 cell line) (Homo sapiens); assay: NCI-H716 cAMP Agonist EC50 Determination
pEC50: −log10 of the molar value.

Test item COc1cc(C2CCCc3nc(SCc4c(F)cc(C#N)cc4F)n(-c4ccc(F)cc4)c32)ccc1Cl (stereo not drawn) [Example 36] ; TGR5 (NCI-H716 cell line) (Homo sapiens); reported pEC50 was < 4.30

Test item COc1cc(C2CCCc3nc(SCc4c(Cl)cncc4Cl)n(-c4ccc(F)cc4)c32)ccc1Cl (stereo not drawn) [Example 54] ; TGR5 (NCI-H716 cell line) (Homo sapiens); reported pEC50 was < 4.30

Test item COc1cc(C2(C=O)CCCc3nc(SCc4c(F)cccc4Cl)n(-c4ccc(F)cc4)c32)ccc1Cl (stereo not drawn) [Example 130, trifluoroacetic acid] ; TGR5 (NCI-H716 cell line) (Homo sapiens); reported pEC50 was < 4.30

###

target: TGR5 (STC1 cell line) (Mus musculus, UniProt Q80SS6); assay: STC1 cAMP Agonist EC50 Determination
Sequence (Q80SS6 whole entry): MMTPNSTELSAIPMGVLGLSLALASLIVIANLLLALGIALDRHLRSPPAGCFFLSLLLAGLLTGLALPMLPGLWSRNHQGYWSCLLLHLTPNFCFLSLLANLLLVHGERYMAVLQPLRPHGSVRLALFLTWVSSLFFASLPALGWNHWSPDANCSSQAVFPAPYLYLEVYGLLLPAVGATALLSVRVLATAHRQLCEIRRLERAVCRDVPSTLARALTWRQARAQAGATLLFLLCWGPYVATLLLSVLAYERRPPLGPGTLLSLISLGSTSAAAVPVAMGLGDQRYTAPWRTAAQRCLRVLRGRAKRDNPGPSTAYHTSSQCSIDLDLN
Counter-ions that a name gives are not always drawn.
Grouping key: EC50. Bins: low (below 800 nM), mid (800 nM to below 3000 nM), high (3000 nM or more)

Enquiry: Into which bin does this molecule go? COc1cc(C2CCCc3nc(SCc4c(F)cc(S(=O)(=O)NCCC[N+](C)(C)C)cc4F)n(-c4ccc(F)cc4)c32)ccc1Cl (stereo not shown) [Example 22, 2,2,2-trifluoroacetate]
Return: high

Enquiry: Into which bin does this molecule go? CNC(=O)c1cc(F)c(CSc2nc3c(n2-c2ccc(F)cc2)C(C)(c2ccc(Cl)c(OC)c2)CCC3)c(F)c1 (stereo not shown)
Return: low

Enquiry: Into which bin does this molecule go? COc1cc(C2CCCc3nc(SCc4c(F)cc(CCC#N)cc4F)n(-c4ccc(F)cc4)c32)ccc1Cl (stereo not shown)
Return: low

Enquiry: Into which bin does this molecule go? COc1cc(C2CCCc3nc(SCc4c(F)cc(CC/C=N/NC(=N)N)cc4F)n(-c4ccc(F)cc4)c32)ccc1Cl (stereo not shown) [Example 47, hydrochloride]
Return: low

Enquiry: Into which bin does this molecule go? COc1cc(C2(C)CCCc3nc(SCc4c(F)cc(C#N)cc4F)n(-c4ccc(F)cc4)c32)ccc1Cl (stereo not shown)
Return: mid

Enquiry: Into which bin does this molecule go? COc1ccc(C2CCCc3nc(SCc4c(F)cc(OCCN5CCCC5)cc4F)n(-c4ccc(F)cc4)c32)cc1OC (stereo not shown)
Return: mid

Enquiry: Into which bin does this molecule go? COc1cc(C2(C)CCCc3nc(SCc4ccncc4)n(-c4ccc(F)cc4)c32)ccc1Cl (stereo not shown)
Return: high

Enquiry: Into which bin does this molecule go? COCCOCCOCCOCCNC(=O)c1cc(F)c(CSc2nc3c(n2-c2ccc(F)cc2)C(c2ccc(OC)c(OC)c2)CCC3)c(F)c1 (stereo not shown)
Return: mid

Enquiry: Into which bin does this molecule go? COc1ccc(C2(C)CCCc3nc(SCc4c(Cl)cccc4Cl)n(-c4ccc(F)cc4)c32)cc1OC (stereo not shown)
Return: mid

Enquiry: Into which bin does this molecule go? COc1cc(C2CCCc3nc(SCc4ncccn4)n(-c4ccc(F)cc4)c32)ccc1Cl (stereo not shown)
Return: low

Enquiry: Into which bin does this molecule go? COc1cc(C2CCCc3nc(SCc4sccc4Cl)n(-c4ccc(F)cc4)c32)ccc1Cl (stereo not shown)
Return: mid

Enquiry: Into which bin does this molecule go? COc1cc(C2(C)CCCc3nc(SCc4c(F)cc(-c5nnn[nH]5)cc4F)n(-c4ccc(F)cc4)c32)ccc1F (stereo not shown)
Return: high

Enquiry: Into which bin does this molecule go? COc1cc(C2CCCc3nc(SCc4c(F)cc(C(=O)O)cc4F)n(-c4ccc(F)cc4)c32)ccc1Cl (stereo not shown)
Return: high

Enquiry: Into which bin does this molecule go? COCCOCCOCCOCCNC(=O)c1cc(F)c(CSc2nc3c(n2-c2ccc(F)cc2)C(c2cc(OC)c(OC)c(Br)c2Br)CCC3)c(F)c1 (stereo not shown) [Example 68b]
Return: high

Enquiry: Into which bin does this molecule go? COc1cc(C2CCCc3nc(SCc4c(F)cc(C#N)cc4F)n(-c4ccc(F)cc4)c32)ccc1F (stereo not shown)
Return: mid

Enquiry: Into which bin does this molecule go? COc1cc(C2(C)CCCc3nc(SCc4c(F)ccc(O)c4F)n(-c4ccc(F)cc4)c32)ccc1Cl (stereo not shown)
Return: low

Enquiry: Into which bin does this molecule go? COc1cc(C2(C=O)CCCc3nc(SCc4c(F)cccc4Cl)n(-c4ccc(F)cc4)c32)ccc1Cl (stereo not shown)
Return: high

Enquiry: Into which bin does this molecule go? COc1cc(C2(C)CCCc3nc(SCc4c(F)cc(C(=O)NCCO)cc4F)n(-c4ccc(F)cc4)c32)ccc1Cl (stereo not shown)
Return: low

Enquiry: Into which bin does this molecule go? COc1cc(C2CCCc3nc(SCc4c(F)cc(CC5SC(=O)NC5=O)cc4F)n(-c4ccc(F)cc4)c32)ccc1Cl (stereo not shown)
Return: mid

Enquiry: Into which bin does this molecule go? COc1ccc(C2(C)CCCc3nc(SCc4c(F)cc(OCCCl)cc4F)n(-c4ccc(F)cc4)c32)cc1OC (stereo not shown)
Return: low

Enquiry: Into which bin does this molecule go? COc1cc(C2(C)CCCc3nc(SCc4ccccc4)n(-c4ccc(F)cc4)c32)ccc1Cl (stereo not shown)
Return: high

Enquiry: Into which bin does this molecule go? COc1cc(C2CCCc3nc(SCc4c(F)cccc4Cl)n(-c4ccc(F)c(F)c4F)c32)ccc1Cl (stereo not shown)
Return: high
